Protocol summary: PAMPA permeability, liver polar lipid extract (LPLE) membrane
Details: n=3
Recorded metric: Mean logPe

INSERT INTO measurements (compound, operator, result_number) VALUES
  ('CO/N=C(\C(=O)N[C@@H]1C(=O)N2C(C(=O)O)=C(COC(N)=O)CS[C@H]12)c1ccco1 [cefuroxime]', '=', -5.17),
  ('CCn1cc(C(=O)O)c(=O)c2cc(F)c(N3CCNCC3)nc21 [enoxacin]', '=', -5.46),
  ('Cn1c(=O)c2c(ncn2C)n(C)c1=O [caffeine]', '=', -4.95),
  ('O=C1NC(=O)C(c2ccccc2)(c2ccccc2)N1 [phenytoin]', '=', -4.46),
  ('CC1Cc2ccccc2N1NC(=O)c1ccc(Cl)c(S(N)(=O)=O)c1 (stereo not drawn) [indapamide]', '=', -4.77),
  ('CC(CCc1ccccc1)NCC(O)c1ccc(O)c(C(N)=O)c1 (stereo not drawn) [labetalol]', '=', -4.72),
  ('N=C(N)c1ccc(OCCCOc2ccc(C(=N)N)cc2)cc1 [propamidine]', '<', -6.12),
  ('CN1C(C(=O)Nc2ccccn2)=C(O)c2ccccc2S1(=O)=O [piroxicam]', '=', -4.99),
  ('O=C1CN=C(c2ccccc2)c2cc([N+](=O)[O-])ccc2N1 [nitrazepam]', '=', -4.60);

FYI, the data here is from paper PMC10053807.
